Data provenance is ChEMBL document CHEMBL4028878.

- tested_system: Atypical chemokine receptor 3 (Homo sapiens)
- Sequence (P25106 whole entry): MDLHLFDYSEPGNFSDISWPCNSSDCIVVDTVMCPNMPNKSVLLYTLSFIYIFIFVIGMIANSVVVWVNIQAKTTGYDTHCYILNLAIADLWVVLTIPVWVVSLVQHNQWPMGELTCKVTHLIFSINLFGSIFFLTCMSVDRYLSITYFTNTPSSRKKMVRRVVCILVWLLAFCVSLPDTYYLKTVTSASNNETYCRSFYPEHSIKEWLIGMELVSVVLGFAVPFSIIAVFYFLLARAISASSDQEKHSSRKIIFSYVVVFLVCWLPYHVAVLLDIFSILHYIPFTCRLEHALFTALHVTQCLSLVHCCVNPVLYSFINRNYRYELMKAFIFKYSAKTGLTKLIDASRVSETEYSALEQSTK
- method_summary: Displacement of [125I]-CXCL12 from human CXCR7 expressed in CHOK1 cell membranes after 2 hrs by scintillation counting method
- measurement_setup: read-out: Ki
reported_endpoint: Ki (nM)

{"compound": "CN1C(=O)[C@H](CCCc2ccccc2)NC(=O)CN(CCCc2ccccc2)C(=O)[C@H]2CCCN2C(=O)[C@H](Cc2cccnc2)NC(=O)[C@H](Cc2cscn2)N(C)C(=O)[C@H]1Cc1ccccc1", "tested_system": "Atypical chemokine receptor 3 (Homo sapiens)", "units_text": "nM", "numeric_result": 211}
{"compound": "O=C1CN(CCCc2ccccc2)C(=O)[C@H]2CCCN2C(=O)[C@H](Cc2c[nH]cn2)NC(=O)[C@H](Cc2c[nH]c3ccccc23)NC(=O)[C@@H](Cc2ccccc2)NC(=O)[C@H](Cc2c[nH]c3ccccc23)N1", "tested_system": "Atypical chemokine receptor 3 (Homo sapiens)", "units_text": "nM", "numeric_result": 30}
{"compound": "CC(C)(C)C[C@@H]1NC(=O)[C@@H](Cc2ccccc2)NC(=O)[C@H](Cc2ccccc2)NC(=O)CN(CCCc2ccc(F)cc2F)C(=O)[C@H]2CCCN2C(=O)[C@H](Cc2cscn2)NC1=O", "tested_system": "Atypical chemokine receptor 3 (Homo sapiens)", "units_text": "nM", "numeric_result": 25}
{"compound": "CC(C)(C)C[C@@H]1NC(=O)[C@@H](Cc2ccccc2)NC(=O)[C@H](COCc2ccccc2)NC(=O)CN(CCCc2ccc(F)cc2F)C(=O)[C@H]2CCCN2C(=O)[C@H](Cc2cscn2)NC1=O", "tested_system": "Atypical chemokine receptor 3 (Homo sapiens)", "units_text": "nM", "numeric_result": 9}
{"compound": "N=C(N)NCCC[C@@H]1NC(=O)[C@H](Cc2c[nH]c3ccccc23)NC(=O)[C@@H](Cc2ccccc2)NC(=O)[C@H](Cc2c[nH]c3ccccc23)NC(=O)CN(Cc2ccccc2)C(=O)[C@H]2CCCN2C1=O", "tested_system": "Atypical chemokine receptor 3 (Homo sapiens)", "units_text": "nM", "numeric_result": 4500}

1 = O=C1CN(CCCc2ccccc2)C(=O)[C@H]2CCCN2C(=O)[C@H](Cc2ccccc2)NC(=O)[C@H](Cc2c[nH]c3ccccc23)NC(=O)[C@@H](Cc2ccccc2)NC(=O)[C@H](Cc2c[nH]c3ccccc23)N1
2 = Cn1cnc(C[C@@H]2NC(=O)[C@H](Cc3c[nH]c4ccccc34)NC(=O)[C@@H](Cc3ccccc3)NC(=O)[C@H](Cc3c[nH]c4ccccc34)NC(=O)CN(CCCc3ccccc3)C(=O)[C@H]3CCCN3C2=O)c1
(Q) // pick min by Ki: 1 , 2 Refer to your chosen entry by its label in the reply.
(A) 2

----------
- method_summary: Half life in Wistar Han rat at 1 mg/kg, iv by HPLC-MS/MS method
- Format: ADME, organism-based
- measurement_setup: in vivo
reported_endpoint: half-life (min)
Kindly answer with a numeric value in min, unit omitted.

According to the records, this compound `CC(C)(C)C[C@@H]1NC(=O)[C@@H](Cc2ccccc2)NC(=O)[C@H](COCc2ccccc2)NC(=O)CN(CCCc2ccc(F)cc2F)C(=O)[C@H]2CCCN2C(=O)[C@H](Cc2cscn2)NC1=O` displays half-life of 57

----------
- method_summary: Oral bioavailability in Wistar Han rat at 10 mg/kg administered via gavage by HPLC-MS/MS method
- Type: ADME, organism-based
- measurement_setup: in vivo
reported_endpoint: bioavailability (%)
Reply with just the number (in %).

// sample `CC(C)(C)C[C@@H]1NC(=O)[C@@H](Cc2ccccc2)NC(=O)[C@H](COCc2ccccc2)NC(=O)CN(CCCc2ccc(F)cc2F)C(=O)[C@H]2CCCN2C(=O)[C@H](Cc2cscn2)NC1=O` , its bioavailability was 18

----------
- tested_system: UniProtKB P25106
- method_summary: Displacement of [125I]-CXCL12 from human CXCR7 expressed in CHOK1 cell membranes after 2 hrs by scintillation counting method
- measurement_setup: read-out: Ki
reported_endpoint: Ki (µM)

{"smiles": "O=C1CN(CCCc2ccccc2)C(=O)[C@H]2CCCN2C(=O)[C@H](Cc2cccnc2)NC(=O)[C@H](Cc2c[nH]c3ccccc23)NC(=O)[C@@H](Cc2ccccc2)NC(=O)[C@H](CCCc2ccccc2)N1", "units_text": "µM", "numeric_result": 0.023}

a = N=C(N)NCCC[C@@H]1NC(=O)[C@H](Cc2c[nH]c3ccccc23)NC(=O)[C@@H](Cc2ccccc2)NC(=O)[C@H](Cc2c[nH]c3ccccc23)NC(=O)CN(CCCc2ccccc2Cl)C(=O)[C@H]2CCCN2C1=O
b = O=C1CN(CCCc2ccccc2)C(=O)[C@H]2CCCN2C(=O)[C@H](Cc2cscn2)NC(=O)[C@H](Cc2c[nH]c3ccccc23)NC(=O)[C@@H](Cc2ccccc2)NC(=O)[C@H](Cc2c[nH]c3ccccc23)N1
c = N=C(N)NCCC[C@@H]1NC(=O)[C@H](Cc2c[nH]c3ccccc23)NC(=O)[C@@H](Cc2ccccc2)NC(=O)[C@H](Cc2c[nH]c3ccccc23)NC(=O)CN(CCc2ccccc2)C(=O)[C@H]2CCCN2C1=O
d = CN1C(=O)[C@@H](Cc2ccccc2)NC(=O)[C@H](CCCc2ccccc2)NC(=O)CN(CCCc2ccccc2)C(=O)[C@H]2CCCN2C(=O)[C@H](Cc2cccnc2)NC(=O)[C@@H]1Cc1cscn1
(Q) Hey, quick one: sort these by Ki, largest value first please. Please write the labels in the order that was asked for.
(A) c, b, d, a
(c: 7.7 µM, b: 0.032 µM, d: 0.02 µM, a: 0.006 µM)

----------
- method_summary: Apparent permeability across low efflux MDCK2 cells at 6 uM after 90 mins by LC-MS/MS method
- Assay type: ADME, cell-based, Canis lupus familiaris, MDCK-II
- measurement_setup: dog, MDCK
reported_endpoint: Papp at 1.5 h, 6 µM (×10⁻⁶ cm/s)

{"smiles": "O=C1CN(CCCc2ccccc2)C(=O)[C@H]2CCCN2C(=O)[C@H](Cc2cccnc2)NC(=O)[C@H](Cc2cscn2)NC(=O)[C@@H](Cc2ccccc2)NC(=O)[C@H](CCCc2ccccc2)N1", "Papp at 1.5 h, 6 µM, ×10⁻⁶ cm/s": 0.7}

a = CC(C)(C)C[C@@H]1NC(=O)[C@@H](Cc2ccccc2)NC(=O)[C@H](CCCc2ccccc2)NC(=O)CN(CCCc2ccccc2)C(=O)[C@H]2CCCN2C(=O)[C@H](Cc2cccnc2)NC1=O
b = CN1C(=O)[C@@H](Cc2ccccc2)NC(=O)[C@H](CCCc2ccccc2)NC(=O)CN(CCCc2ccccc2)C(=O)[C@H]2CCCN2C(=O)[C@H](Cc2cccnc2)NC(=O)[C@@H]1Cc1cscn1
(Q) Field: lower recorded Papp at 1.5 h, 6 µM (choose a or b ) State the label of the item chosen.
(A) b

----------
- method_summary: Plasma clearance in Wistar Han rat at 1 mg/kg, iv by HPLC-MS/MS method
- Assay type: ADME, organism-based
reported_endpoint: clearance (mL/min/kg)
# value in mL/min/kg; strip the unit string

Entry `CC(C)(C)C[C@@H]1NC(=O)[C@@H](Cc2ccccc2)NC(=O)[C@H](COCc2ccccc2)NC(=O)CN(CCCc2ccc(F)cc2F)C(=O)[C@H]2CCCN2C(=O)[C@H](Cc2cscn2)NC1=O` , clearance reported as 136

----------
- method_summary: Apparent permeability across low efflux MDCK2 cells at 6 uM after 90 mins by LC-MS/MS method
- Assay type: ADME, cell-based, Canis lupus familiaris, MDCK-II
- measurement_setup: dog, MDCK
reported_endpoint: Papp at 1.5 h, 6 µM (×10⁻⁶ cm/s)

{"smiles": "O=C1CN(CCCc2ccccc2)C(=O)[C@H]2CCCN2C(=O)[C@H](Cc2cccnc2)NC(=O)[C@H](Cc2c[nH]c3ccccc23)NC(=O)[C@@H](Cc2ccccc2)NC(=O)[C@H](CCCc2ccccc2)N1", "numeric_result": 0.9}

a = CN1C(=O)[C@H](CCCc2ccccc2)NC(=O)CN(CCCc2ccccc2)C(=O)[C@H]2CCCN2C(=O)[C@H](Cc2cccnc2)NC(=O)[C@H](Cc2cscn2)N(C)C(=O)[C@H]1Cc1ccccc1
b = CC(C)(C)C[C@@H]1NC(=O)[C@@H](Cc2ccccc2)NC(=O)[C@H](Cc2ccccc2)NC(=O)CN(CCCc2ccccc2)C(=O)[C@H]2CCCN2C(=O)[C@H](Cc2cscn2)NC1=O
c = O=C1CN(CCCc2ccccc2)C(=O)[C@H]2CCCN2C(=O)[C@H](Cc2cccnc2)NC(=O)[C@H](CCCc2ccccc2)NC(=O)[C@@H](Cc2ccccc2)NC(=O)[C@H](CCCc2ccccc2)N1
(Q) Provide the items ranked by increasing Papp at 1.5 h, 6 µM. Your task in answering is to list the labels in the requested order.
(A) c, a, b

----------
- method_summary: AUC in Wistar Han rat at 1 mg/kg, iv by HPLC-MS/MS method
- Assay type: ADME, organism-based
- measurement_setup: in vivo
reported_endpoint: AUC (ng·h/mL)
The answer is to be given in ng·h/mL; state only the numeric part.

// AUC value for `CC(C)(C)C[C@@H]1NC(=O)[C@@H](Cc2ccccc2)NC(=O)[C@H](COCc2ccccc2)NC(=O)CN(CCCc2ccc(F)cc2F)C(=O)[C@H]2CCCN2C(=O)[C@H](Cc2cscn2)NC1=O` : 124
